Biological target: Cytochrome P450 2C19 (Homo sapiens, UniProt P33261)
Sequence (P33261 whole entry): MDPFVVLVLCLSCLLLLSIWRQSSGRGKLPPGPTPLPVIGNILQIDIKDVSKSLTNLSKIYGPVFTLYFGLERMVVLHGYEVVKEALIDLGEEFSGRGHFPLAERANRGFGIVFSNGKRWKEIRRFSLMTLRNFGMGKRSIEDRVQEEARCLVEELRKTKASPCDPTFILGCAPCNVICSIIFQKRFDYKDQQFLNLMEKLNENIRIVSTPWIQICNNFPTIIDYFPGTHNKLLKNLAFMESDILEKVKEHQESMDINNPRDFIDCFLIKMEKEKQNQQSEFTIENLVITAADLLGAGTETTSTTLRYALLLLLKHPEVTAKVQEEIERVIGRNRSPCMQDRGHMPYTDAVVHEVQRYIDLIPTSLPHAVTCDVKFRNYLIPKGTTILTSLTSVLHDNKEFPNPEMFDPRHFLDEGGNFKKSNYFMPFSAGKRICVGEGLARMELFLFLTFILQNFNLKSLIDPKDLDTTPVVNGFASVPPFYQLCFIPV
Test: Inhibition of CYP2C19 in human liver microsomes after 30 mins in presence of NADPH
pEC50: −log10 of the molar value.
Listing of entries alongside the reported pEC50.

These solved cases illustrate the format of a correct answer.
COc1ccc2c(c1)C1CC1(C(=O)N1C3CC1CN(Cc1ccccc1)C3)Cn1c-2c(C2CCCCC2)c2ccc(C(=O)NS(=O)(=O)N(C)C)cc21 (racemic) : 4.51
COc1ccc2c(c1)C1CC1(C(=O)N1C3CNCC1C3)Cn1c-2c(C2CCCCC2)c2ccc(C(=O)NS(=O)(=O)N(C)C)cc21 (racemic) : < 4.40
COc1ccc2c(c1)[C@@H]1C[C@]1(C(=O)N1C3CC1CN(C)C3)Cn1c-2c(C2CCCCC2)c2ccc(C(=O)NS(=O)(=O)N(C)C)cc21 : < 4.40

Read the next record carefully.
Entry "CCN1CC2CC(C1)N2C(=O)[C@]12C[C@H]1c1cc(OC)ccc1-c1c(C3CCCCC3)c3ccc(C(=O)NS(=O)(=O)N(C)C)cc3n1C2" , pEC50 reported as < 4.40
